Numbers sourced from patent US12404304B1.

Listing: Average Cell Viability after 24 Hours (% DMSO) of selected molecules
Test system: viable cells in culture
Assay: Cell viability assay (CellTiter-Glo Luminescent Cell Viability Assay, ATP quantitation, percent of vehicle control)
Answer in % DMSO, number only, no unit symbol.

For orientation, consider the following solved cases.
**Query** Reported Average Cell Viability after 24 Hours (% DMSO) for viable cells in culture, given O=C(NC(c1ccc2c(c1)OCO2)c1cc([N+](=O)[O-])c2cccnc2c1O)C1CCCCC1 (stereo not drawn) ?
**Result** 61.20

**Query** Request body: readout Average Cell Viability after 24 Hours (% DMSO), system viable cells in culture, query Cc1ccc2ccc(C(Nc3ccccn3)c3cccc([N+](=O)[O-])c3)c(O)c2n1 (stereo not drawn) . Return the value.
**Result** 67.66

**Query** Request - read-out Average Cell Viability after 24 Hours (% DMSO) | tested on viable cells in culture | molecule `Cc1cnc(CNC(=O)c2cc(-c3cccs3)on2)cn1`
**Result** 110.34

**Query** # value lookup — system viable cells in culture, readout Average Cell Viability after 24 Hours (% DMSO), item `O=C(N/N=C/C=C/c1ccccc1)c1ccccc1O`
**Result** 80.84

---
**Query** Which Average Cell Viability after 24 Hours (% DMSO) is reported with viable cells in culture for this entry: `O=C(O)CCc1ccc(-c2ccc(Cl)cc2)o1` ?
**Result** 79.50

**Query** Please state recorded Average Cell Viability after 24 Hours (% DMSO) (tested on viable cells in culture) of CC(C)C(=O)NC(c1ccccc1)c1cc([N+](=O)[O-])c2cccnc2c1O (stereo not drawn)
**Result** 68.20

**Query** Return Average Cell Viability after 24 Hours (% DMSO) measured with viable cells in culture given this molecule: CC1=C(C(=O)OC2CCCC2)C(c2cccc(F)c2)C2=C(CC(c3cccs3)CC2=O)N1 (stereo not drawn)
**Result** 79.22

**Query** Form: Entry = `COc1ccc(Br)cc1CNC(=O)Cn1ncc2c(=O)oc3ccccc3c21` | System = viable cells in culture | Average Cell Viability after 24 Hours (% DMSO) = ____
**Result** 71.81

**Query** What Average Cell Viability after 24 Hours (% DMSO) appears in the records for this molecule with viable cells in culture? `Cc1csc(-n2nc(C)c(CCC(=O)Nc3ccc(F)cc3)c2O)n1`
**Result** 91.26

**Query** Notebook: pull reported Average Cell Viability after 24 Hours (% DMSO) for viable cells in culture, entry Cc1cc(C)c2c3c1C1C=CCC1CN3C(C(=O)O)C1CC=CC21 (stereo not drawn)
**Result** 89.11

**Query** // map `Cc1c(OS(=O)(=O)c2ccccc2)ccc2c3c(c(=O)oc12)CCCC3` to recorded Average Cell Viability after 24 Hours (% DMSO) (system: viable cells in culture)
**Result** 99.57

**Query** # query: Average Cell Viability after 24 Hours (% DMSO) | item `O=C(NCCCN1CCCC1=O)c1cc(-c2cccs2)on1` | system: viable cells in culture
**Result** 104.12
